Quick list: protein stability index per entry.
B1: SPRY1 (parent)
chain: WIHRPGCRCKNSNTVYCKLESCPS

- Variants of: B1
- protocol.summary: protein stability index of a GFP-peptide fusion (GPS, HEK-293T) (PSI 1-6); higher = more stable;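 also: lentivirally expressed fusions sorted by FACS into six bins by GFP to DsRed ratio, PSI derived from sequencing read proportions per bin multiplied by bin number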
- run.conditions: c terminus: a fixed tail appended
// no unit, no text: just the number

# variant.notation, protein stability index
measured = [
    ("E20G", 2.21),
    ("L19V", 2),
    ("S24A", 2.25),
    ("N13W", 2.81),
]

For the next question, use this variant.
Exercise: Return reported protein stability index; argument: N11M
Key: 2.66
